biological target: T1, PSMA Fab; test: clonal phage ELISA on biotinylated PSMA Fab captured on neutravidin, anti-M13 HRP detection;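 also: crude clonal phage supernatants added to wells pretreated with PSMA antigen in blocking buffer or with blocking buffer only, then briefly incubated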
T1 construct: also called Anti-PSMA Fab; 006 PSMA Fab
Where no end group is shown, it is not given here.
reported.property: Phage binding ELISA signal, Anti-PSMA Fab

# binder, val
data = [
    ("NDHWCIPPWMCAPY (cysteine pairing not given here; also: displayed on bacteriophage by fusion to pIII, Peptide-180 library clone, tested as clonal phage supernatant (peptide fused to the pIII filament of the bacteriophage)) [Phage-2354]", 1.42),
    ("MEKWCTPSWMCQWM (Peptide-180 library clone, tested as clonal phage supernatant (peptide fused to the pIII filament of the bacteriophage)) [Phage-2348]", 1.43),
    ("FENWCTPSWMCSGF (Peptide-180 library clone, tested as clonal phage supernatant (peptide fused to the pIII filament of the bacteriophage)) [Phage-2355]", 1.42),
]
